Activity values, listed per item
# Test system: Mus musculus
# assay procedure: Induction of IL12p40 secretion in BALB/c mouse serum at 2 ug, iv after 18 hrs relative to control
# Format: functional
Answer field: number only, no words.

Below, 2 molecules whose answers are already recorded.
molecule	measured target	val
CCCCCCCCCCCCCCC[C@@H](O)[C@H](CO[C@H]1O[C@H](C(=O)O)[C@H](O)[C@H](O)[C@H]1O)NC(=O)CCCCCCCCCCCCC	Mus musculus	1.9
CCCCCCCCCCCCCCCCCCCCCCCCCC(=O)N[C@@H](CO[C@H]1O[C@H](CO)[C@H](O)[C@H](OS(=O)(=O)[O-])[C@H]1O)[C@H](O)[C@H](O)CCCCCCCCCCCCCC.[Na+]	Mus musculus	2.1

Problem: Sample CCCCCCCCCCCCCCCCCCCCCCCCCC(=O)N[C@@H](CO[C@H]1O[C@H](CO)[C@H](O)[C@H](O)[C@H]1O)[C@H](O)[C@H](O)CCc1ccccc1 — what was its Activity?
Solution: 3.5

Problem: Now consider CCCCCCCCCCCCCCCCCCCCCCCCCC(=O)N[C@@H](CO[C@H]1O[C@H](CO)[C@H](O)[C@H](O)[C@H]1O)[C@H](O)[C@H](O)CCCCCCCCCCCCCC [RGI-7000] and answer again.
Solution: 2.8

Problem: Now consider CCCCCCCCCCCCCC[C@@H](O)[C@@H](O)[C@H](CO[C@H]1O[C@H](CO)[C@H](O)[C@H](O)[C@H]1O)NC(=O)CCCCCCCCCCCCC and answer again.
Solution: 0.9
